- TARGET DESC: EGFRvIII expressed on cells (F98-npEGFRvIII, NCI-H522-EGFRvIII, U87-KO-EGFRvIII) (human)
- TEST SUMMARY: flow cytometry, F98-EGFRvIII cells; 2nd Ab only 258
Each record here notes measured MFI.
Please respond with just the number, no unit label.

These recorded examples may help you get a feel for the data.
12B2 (antibody, V domains shown) VH: QVTLKESGPVLVKPTETLTLTCTVSGFSLSNPRMGVSWIRQPPGKALEWLGHIFSSDEKSYRLSLRSRLSISKDTSKSQVVLTMTNMDPVDTATYYCVRDSSNYGGYFDYWGQGTLVTVSS VL: EVVMTQSPATLSVSPGERATLSCRASQSVINNLAWYQQKPGQAPRLLIYGTSTRATDIPARFSGSGSGTEFTLTISSLQSEDFAVYYCQDYNNWPFTFGPGTKVDIK ... 2750
12H6 (antibody, V domains shown) VH: QVTLKESGPVLVKPTETLTLTCTVSGFSLSNARMGVSWIRQPPGKALEWLAHIFSTDEKSIRRSLRSRLTLSKDTSKSQVVLTMTNMDPVDTATYYCARDSSNYEGYFDYWGQGTLVTVSS VL: EVVMTQSPATLSVSPGERATLSCRASQGVSSNFAWYQQRPGQSPRLLLYGASTRATGVPGRFSGSGSGTENILTISSLQSEDFAIYFCQQYKDWPFTFGPGSKVDIK ... 3440
11B11 (antibody, V domains shown) VH: QVTLKESGPVLVKPTETLTLTCTVSGFSLSNAKMGVSWIRQPPGKALEWLAHIFSTDEKSIRRSLRSRLTMSKDTSKSQVVLTMTNMDPVDTATYYCVRDSSNYEGYFDYWGQGTLVTVSS VL: EVLMTQSPATLSVSPGERATLSCRASQSVSTNFAWYQQRPGQAPRLLLFGASTRATGIPGRFSGSGSGTENILTISSLQSEDFAIYFCQQYKDWPFTFGPGSKVEIK ... 3390
21E11 (antibody, V domains shown) VH: QVTLKESGPVLVKPTETLTLTCTVSGFSLSNVRMGVSWIRQPPGKALEWFAHIFSSDEKSIRRSLRSRLTLSKDTSKSQVVLTMTNMDPVDTATYYCARDSSNYEGYFDFWGQGTLVTVSS VL: DMVVTQSPATLSVSPGERATLSCRASQSVGSDLAWYQQPPGQSPRLLIYGASTRATGVPARFSGSGSGTDFTLTITSLESEDFAVYYCQQYNDWPFTFGPGTKVDIK ... 3100

(Q) Quick check: MFI of 19A9 (antibody, V domains shown) VH: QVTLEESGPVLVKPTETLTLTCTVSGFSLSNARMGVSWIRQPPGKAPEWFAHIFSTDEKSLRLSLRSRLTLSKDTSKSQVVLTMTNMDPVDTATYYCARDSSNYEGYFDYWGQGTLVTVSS VL: EVVMTQSPATLSVSPGERATLSCRASQSVNRNLAWYQQKPGQAPRLLIFGTSTRATGIPARFSGSGSGTEFTLTIDSLQSEHSGLYYCQQYNDWPFTFGPGTKVDIK ?
(A) 3100
